Test system: HepG2 cell line
Assay: In vitro toxicity study on HepG2 cell line (resazurin, viability and IC50)
Assay type: cell-based, human
Details: HepG2 cells, 50 μM lipid, 48 h post-treatment, resazurin, relative to ethanol vehicle controls
Procedure: The synthesized lipids were tested in term of in vitro transfection efficacy and toxicity on HeLa cells. In order to perform the mentioned biological tests, appropriate LNPs had to be formulated from the synthesized lipids. The formulation technique was different in Method A and B. The particle size, polydispersity index (PDI) and zeta potential of resulting LNPs were determined by means of Dynamic Light Scattering technique (DLS). […]
resultType: Viability (%) at different lipid concentrations, mean

CCCCC/C=C\C/C=C\CCCCCCCCOC(CCCCCCC/C=C\C/C=C\CCCCC)O[Si](C)(C)OCCCCCCN1CCN(CCO)CC1 (stereo not shown) | 101.2%
CCCCC/C=C\C/C=C\CCCCCCCCO[Si](C)(C)OC(CCCCCCC/C=C\C/C=C\CCCCC)OCCCN(C)C (stereo not shown) | 99.05%
CCCCC/C=C\C/C=C\CCCCCCCCOC(CCCCCCC/C=C\C/C=C\CCCCC)O[Si](C)(C)OCCCCCCN1CCCCC1CO (stereo not shown) | 97.8%

Now examine the next entry.
Q. Given the entry CCCCC/C=C\C/C=C\CCCCCCCCOC(CCCCCCC/C=C\C/C=C\CCCCC)O[Si](C)(C)OCCCCCCN(C)[C@H](CO)Cc1ccccc1 (stereo partly shown) , what Viability (%) at different lipid concentrations, mean was observed with HepG2 cell line?
A. 103.7%
